system: Myc; assay: Myc inhibition assay: Myc expression per cell by anti-Myc immunofluorescence, high-content imaging; type: cell-based, human (patient-derived medulloblastoma xenograft cells); conditions: Table 1; medulloblastoma PDX cells, 4 h; read-out: IC50 (Myc inhibition)
pIC50: −log10 of the molar value.

# MOLECULE, pIC50
rows = [
    ("Cc1c(-c2ccnc(Nc3cccc(C(F)(F)F)c3)n2)ccc2[nH]cnc12 [Compound 125]", "5.00 to 6.00"),
    ("COc1cc(-c2ccnc(Oc3ccccc3)n2)ccn1 [Compound 235]", "4.00 to 5.00"),
    ("Cc1cccc(Nc2nccc(-c3ccnc(O)c3)n2)c1 [Compound 159]", "6.00 to 6.70"),
    ("Oc1cc(-c2ccnc(Nc3ccc(F)c(F)c3)n2)ccn1 [Compound 209]", "5.00 to 6.00"),
    ("Fc1cccc(Nc2nccc(-c3ccc4[nH]cnc4c3)n2)c1 [Compound 199]", "> 6.70"),
]

---

Test system: Myc
Experiment: Myc inhibition assay: Myc expression per cell by anti-Myc immunofluorescence, high-content imaging
Format: cell-based, human (patient-derived medulloblastoma xenograft cells)
Details: Table 1; medulloblastoma PDX cells, 4 h; read-out: IC50 (Myc inhibition)
Description: To identify Myc inhibitors, cells isolated from patient-derived orthotopic xenografts (PDXs) from patients with Myc-driven medulloblastoma were used. […] Cells were then analyzed using high-content imaging to determine the levels of Myc expression per cell and IC50 values of the compounds.
Known IC50 of a selection of compounds

# COMPOUND, IC50
data = [
    ("CN1CCN(c2cccc(Nc3nccc(-c4ccc5[nH]cnc5c4)n3)c2)CC1 [Compound 71]", "200 to 1000 nM"),
    ("CC(C)c1cccc(Nc2nccc(-c3cnc4nc[nH]c4c3)n2)c1 [Compound 134]", "< 200 nM"),
    ("Oc1cc(-c2ccnc(Nc3ccncn3)n2)ccn1 [Compound 175]", "10000 to 100000 nM"),
    ("Clc1ccc(Nc2nccc(-c3ccc4[nH]cnc4c3)n2)cc1 [Compound 86]", "200 to 1000 nM"),
    ("Clc1cc(Cl)cc(Nc2nccc(-c3ccc4[nH]cnc4c3)n2)c1 [Compound 49]", "1000 to 10000 nM"),
    ("c1cc(-c2ccc3[nH]cnc3c2)nc(Nc2cnoc2)n1 [Compound 56]", "200 to 1000 nM"),
    ("O=S(=O)(Nc1ccc(F)cc1)c1cccc(Nc2nccc(-c3ccc4[nH]cnc4c3)n2)c1 [Compound 36]", "200 to 1000 nM"),
    ("COc1nccc(-c2ccnc(Nc3ccccc3)n2)n1 [Compound 163]", "10000 to 100000 nM"),
    ("FC(F)(F)c1cccc(Nc2cc(-c3ccc4nc[nH]c4c3)ccn2)n1 [Compound 281]", "< 200 nM"),
]

---

Known IC50 of a selection of compounds
system: Myc; experiment: Myc inhibition assay: Myc expression per cell by anti-Myc immunofluorescence, high-content imaging; format: cell-based, human (patient-derived medulloblastoma xenograft cells); conditions: Table 1; medulloblastoma PDX cells, 4 h; read-out: IC50 (Myc inhibition)

# COMPOUND, SYSTEM UNDER TEST, IC50
rows = [
    ("CC(C)n1cc(Nc2nccc(-c3ccc4[nH]cnc4c3)n2)cn1 [Compound 21]", "Myc", "200 to 1000 nM"),
    ("Cc1ccc(C)n1-c1cccc(Nc2nccc(-c3ccc4[nH]cnc4c3)n2)c1 [Compound 4]", "Myc", "1000 to 10000 nM"),
    ("FC(F)(F)c1cccc(Nc2nccc(-c3ccc4cn[nH]c4c3)n2)c1 [Compound 164]", "Myc", "1000 to 10000 nM"),
    ("O=S(=O)(c1cccc(Nc2nccc(-c3ccc4[nH]cnc4c3)n2)c1)C(F)(F)F [Compound 260]", "Myc", "< 200 nM"),
    ("Cn1cc(Nc2nccc(-c3ccc4[nH]cnc4c3)n2)cn1 [Compound 77]", "Myc", "200 to 1000 nM"),
    ("COc1cccc(-c2ccnc(N(C)c3ccccc3)n2)c1 [Compound 247]", "Myc", "1000 to 10000 nM"),
    ("CN1CCN(c2nccc(-c3ccc4[nH]cnc4c3)n2)CC1 [Compound 74]", "Myc", "1000 to 10000 nM"),
    ("FC(F)(F)c1cccc(Nc2ncnc(-c3cnc4nc[nH]c4c3)n2)c1 [Compound 105]", "Myc", "< 200 nM"),
    ("COc1cc(-c2ccnc(Nc3cccc(C(F)(F)F)n3)n2)ccn1 [Compound 168]", "Myc", "10000 to 100000 nM"),
    ("Fc1cccc(Nc2nccc(-c3ccc4[nH]nnc4c3)n2)c1 [Compound 138]", "Myc", "1000 to 10000 nM"),
    ("COc1cc(-c2ccnc(Nc3ccc(F)c(F)c3)n2)ccn1 [Compound 210]", "Myc", "1000 to 10000 nM"),
    ("CCC(=O)Nc1cccc(Nc2nccc(-c3ccc4[nH]cnc4c3)n2)c1 [Compound 15]", "Myc", "200 to 1000 nM"),
    ("c1cc(Nc2nccc(-c3ccc4[nH]cnc4c3)n2)cc(-c2ccncc2)c1 [Compound 43]", "Myc", "< 200 nM"),
    ("Oc1ccc(-c2ccnc(Nc3cccc(F)c3)n2)cc1 [Compound 194]", "Myc", "1000 to 10000 nM"),
    ("c1cnc(-n2cc(Nc3nccc(-c4ccc5[nH]cnc5c4)n3)cn2)nc1 [Compound 20]", "Myc", "200 to 1000 nM"),
    ("Oc1cc(-c2ccnc(Nc3cccc(C(F)(F)F)c3)n2)ncn1 [Compound 131]", "Myc", "1000 to 10000 nM"),
    ("COc1cc(-c2ccnc(Nc3cccc(F)c3)n2)ccn1 [Compound 243]", "Myc", "1000 to 10000 nM"),
    ("CS(=O)(=O)Nc1cccc(Nc2nccc(-c3ccc4[nH]cnc4c3)n2)c1 [Compound 255]", "Myc", "1000 to 10000 nM"),
    ("Oc1cc(-c2ncnc(Nc3ccccc3)n2)ccn1 [Compound 233]", "Myc", "1000 to 10000 nM"),
    ("FC(F)c1cccc(Nc2cc(-c3ccc4[nH]cnc4c3)ccn2)n1 [Compound 278]", "Myc", "< 200 nM"),
    ("FC(F)(F)c1cccc(Nc2nccc(NCCc3cnc[nH]3)n2)c1 [Compound 111]", "Myc", "1000 to 10000 nM"),
    ("c1cncc(-c2cccc(Nc3nccc(-c4ccc5[nH]cnc5c4)n3)c2)c1 [Compound 45]", "Myc", "< 200 nM"),
    ("Oc1ccc(-c2ccnc(Nc3cccc(C(F)(F)F)c3)n2)cn1 [Compound 211]", "Myc", "200 to 1000 nM"),
    ("CS(=O)(=O)c1cccc(Nc2nccc(-c3ccc4[nH]cnc4c3)n2)c1 [Compound 27]", "Myc", "< 200 nM"),
    ("COc1ccc(Oc2ccnc(Nc3cccc(F)c3)n2)cn1 [Compound 124]", "Myc", "10000 to 100000 nM"),
    ("NC(=O)c1cccc(Nc2nccc(-c3ccc4[nH]cnc4c3)n2)c1 [Compound 67]", "Myc", "200 to 1000 nM"),
    ("Cc1ccccc1Nc1nccc(-c2ccc3[nH]cnc3c2)n1 [Compound 51]", "Myc", "1000 to 10000 nM"),
    ("COc1cc(-c2ccnc(Nc3cccc(OCCO)c3)n2)ccn1 [Compound 129]", "Myc", "1000 to 10000 nM"),
    ("COc1ccc(-c2ccnc(Nc3cccc(F)c3)n2)cn1 [Compound 214]", "Myc", "10000 to 100000 nM"),
    ("Cc1nc2ccc(-c3ccnc(Nc4cccc(C(F)(F)F)c4)n3)cc2[nH]1 [Compound 142]", "Myc", "200 to 1000 nM"),
    ("Cc1cc(C)cc(Nc2nccc(-c3ccc4[nH]cnc4c3)n2)c1 [Compound 16]", "Myc", "< 200 nM"),
    ("COc1ccc(-c2ccnc(Nc3ccccc3)n2)cn1 [Compound 239]", "Myc", "10000 to 100000 nM"),
    ("Fc1cc(Nc2nccc(-c3ccc4[nH]cnc4c3)n2)cc(F)c1F [Compound 258]", "Myc", "< 200 nM"),
    ("Oc1ccc(-c2ccnc(Nc3cccc(F)c3)n2)cn1 [Compound 213]", "Myc", "1000 to 10000 nM"),
    ("CCc1ccccc1Nc1nccc(-c2ccc3[nH]cnc3c2)n1 [Compound 80]", "Myc", "1000 to 10000 nM"),
    ("Fc1cc(-c2ccnc(Nc3cccc(C(F)(F)F)c3)n2)cc2nc[nH]c12 [Compound 115]", "Myc", "< 200 nM"),
    ("Oc1cncc(-c2ccnc(Nc3cccc(C(F)(F)F)c3)n2)c1 [Compound 201]", "Myc", "1000 to 10000 nM"),
]
